Data origin: patent US20180057505A1

# target or test system: PAR2 (HT-29 cells) (Homo sapiens)
# Construct: host or cells: HT-29
# assay protocol: Ca FLIPR TETRA assay, ANTAGONIST mode, activator 8 μM SLIGKV
# Type: cell-based
# particulars: HT-29 cells, activator 8 μM SLIGKV; maximal antagonist concentration per Method (A: 0.1, 1 or 2 μM; B: 50 μM)
experimental readout: log10 IC50 (log10 of the value in nM)
Transform log10 | Measure IC50 | Unit nM

                        structure_as_smiles  readout_number
0  CC(C)c1cc(-c2ccc(F)cc2)nc2sc(C(=O)N3CCN(C(=O)[C@H](O)CC(C)(C)C)[C@@H](C)C3)nc12            3.32
1  CC1(C)C(=O)NCCN1C(=O)c1cc2nc(-c3ccc(F)cc3)cc(C3CCCC3)c2o1            0.70
2  CC(C)(C)c1cc(-c2ccc(Cl)cc2)nc2cc(C(=O)N3CCN(C(=O)[C@H]4C[C@@](C)(O)C4)CC3(C)C)oc12           -0.22
3  CC(C)c1cc(-c2ccc(F)cc2)nc2cc(C(=O)N3CCN(C(=O)C4(O)CCOCC4)C[C@H]3C)oc12            3.96
4  CC(C)(C)c1cc(-c2ccc(Cl)cc2)nc2cc(C(=O)N3CCN(c4ccc(C(=O)O)nc4)CC3(C)C)oc12            1.79
5  CC(C)(C)c1cc(-c2ccc(Cl)c(F)c2)nc2cc(C(=O)N3CCN(c4cc(C(=O)O)n[nH]4)C(=O)C3(C)C)oc12            1.56

Form: compound = CC(C)c1cc(-c2ccc(F)cc2)nc2cc(C(=O)N3CCN(S(=O)(=O)c4ccn(C)n4)CC3(C)C)oc12 ; log10 IC50 = 1.66

----------
# target or test system: PAR2 (HT-29 cells) (Homo sapiens)
# Construct: host or cells: HT-29
# Sequence (P55085 26-397): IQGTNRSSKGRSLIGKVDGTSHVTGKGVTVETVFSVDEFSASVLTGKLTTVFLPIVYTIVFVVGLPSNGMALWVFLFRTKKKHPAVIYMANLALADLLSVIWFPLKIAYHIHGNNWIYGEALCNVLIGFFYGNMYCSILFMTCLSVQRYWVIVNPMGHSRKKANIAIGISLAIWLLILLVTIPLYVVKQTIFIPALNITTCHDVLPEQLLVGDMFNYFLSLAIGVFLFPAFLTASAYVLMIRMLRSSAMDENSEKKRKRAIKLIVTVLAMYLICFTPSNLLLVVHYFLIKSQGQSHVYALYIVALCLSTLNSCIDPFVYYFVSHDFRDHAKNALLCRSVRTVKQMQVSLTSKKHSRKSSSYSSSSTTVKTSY
# assay protocol: Ca FLIPR TETRA assay, ANTAGONIST mode, activator 8 μM SLIGKV
# Assay type: cell-based
# particulars: HT-29 cells, activator 8 μM SLIGKV; maximal antagonist concentration per Method (A: 0.1, 1 or 2 μM; B: 50 μM)
# Experimental: Protocol for Testing PAR2 Compounds in ANTAGONIST Mode Using the Ca FLIPR^TETRA Assay (384 Well). […] A first read was performed to determine whether the test compounds on their own can activate Ca^2+ responses. The cells were incubated with the compounds for 30 min at r. t. and then read in ANTAGONIST mode in the same plate by stimulating with 6.2 uL of a fixed concentration of the activator: final concentrations 8 μM SLIGKV, 1 U/mL Thrombin, 3.1 U/mL trypsin, or 0.6 μM UTP.
pIC50: −log10 of the molar value.
Please note: Y applies when pIC50 is 8 or greater, and N applies otherwise.

Before answering, review these 6 worked examples.
>>> df
                                   compound  label_value
0  CC1(C(=O)O)CCC(C(=O)N2CCN(C(=O)c3cc4nc(-c5ccc(F)cc5)cc(C(C)(C)C)c4o3)C(C)(C)C2)CC1 (stereo not shown)            Y
1  Cc1cc(C(=O)N2CCN(C(=O)c3cc4nc(-c5ccc(Cl)cc5)cc(C(C)(C)C)c4o3)C(C)(C)C2)[nH]n1            Y
2  Cc1nc(C(=O)N2CCN(C(=O)c3cc4nc(C5CCC(F)(F)CC5)cc(C(C)(C)C)c4o3)C(C)(C)C2=O)n[nH]1            N
3  CC(C)(C)c1cc(-c2ccc(Cl)cc2)nc2cc(C(=O)N3CCN(C(=O)c4nnc[nH]4)CC3(C)C)oc12            Y
4  CN1CCN(C(=O)c2cc3nc(-c4ccc(Cl)cc4)cc(C(C)(C)C)c3o2)C(C)(C)C1=O            Y
5  CC(C)c1cc(-c2ccc(F)cc2)nc2cc(C(=O)N3CCN(C(=O)C4CCCC4)[C@@H](C)C3)oc12            N

Lab note: next compound to report on.
Determine whether this compound has pIC50 no lower than 8: CC(C)c1cc(-c2ccc(F)cc2)nc2cc(C(=O)N3CCN(S(=O)(=O)c4cn(C)cn4)CC3(C)C)oc12
N
